- Test system: mouse L929 fibrosarcoma cells
- procedure-details: necroptosis assay in L929 cells
- Assay type: cell-based
- experimental-setup: viability by cellular ATP (Cell Titer-Glo), read-out: mean pIC50, inhibition of necrosis in L929 cells (converted)
Could you please report measured IC50 for the items listed next?

QUERY: Any idea what its IC50 is? The compound is O=C(C1CCN(c2ccc(F)cn2)CC1)N1N=CCC1c1ccccc1 (centres unmarked) [Example 2]
RESULT: ~200 nM

QUERY: Any idea what its IC50 is? The compound is CC(C)(C)C(=O)N1N=CC[C@H]1c1ccc(Cl)c(Cl)c1 [Example 40]
RESULT: ~15.8 nM

QUERY: Any idea what its IC50 is? The compound is CC(C)(C)C(=O)N1N=CC[C@H]1c1cncc(F)c1 [Example 15]
RESULT: ~20 nM

QUERY: Any idea what its IC50 is? The compound is CC(C)(C)C(=O)N1N=CC[C@H]1C1CCCCC1 [Example 56]
RESULT: ~50.1 nM

QUERY: Any idea what its IC50 is? The compound is O=C(C1CCN(c2ncccn2)CC1)N1N=CC[C@H]1c1ccccc1 [Example 172]
RESULT: ~631 nM
